Data provenance is the nanobody polyreactivity screen of Harvey et al. (2022).

Assay: yeast display, Sf9 membrane polyspecificity reagent, FACS + sequencing; frameworks hold sequencing errors
measured-metric: polyreactivity (PSR sort gate)

Consider the reported polyreactivity (PSR sort gate) for these sequences:
QVQLVESGGGLVQAGGSLRLSCAASGRTFTHYAMGWYRQAPGKERELVASISDGGRTHYADSVKGRFTISRDNAKNTVYLQMNSLKPEDTAVYYCATDRYPTRRYDYWGQGTQVTVSS low polyreactivity
QVQLVESGGGLVQAGGSLRLSCAASGSIFGKYAMGWYRQAPGKERELVAAISWSGGSTYYADSVKGRFTISRDNAKNTVYLQMNSLKPEDTAVYYCAATFRGTFRRIWTDTRAYDYWGQGTQVTVSS high polyreactivity
QVQLQESCGGLVQAGGCLRLSCAASGTIFDPDYMGWYHQAPCKERELVASISLGRITYYADSVKGRFTINRDNAKNTVYLQMNSLKPEDTAVYYCAVRVETIYYYSYWGQGTQVTVRS high polyreactivity
QVHLVESGAGLVHAGGRLRLSCAASGRIFFGYAMGWYRQAPGKERELVAGITSSTGRTYYADSVKGRFTISRDNAKNTVYLQMNSVKPEDTAVYYCAADTWYRYDYWGQGTQVTESS low polyreactivity

Now consider a different sequence.
Specify measured polyreactivity (PSR sort gate) for `QVQLVESGGGLVQAGGSLRLSCAASGSIFIDYAMGWYRQAPGKERELVATISNSGTSTYYADSVKGRFTISRDNAKNTVYLQMNSLKPEDTAVYYCAAEAWPYGDYYWGQGTQVTVSS` .
low polyreactivity
